- tgt: human mature TGFβ3 (Homo sapiens, UniProt P10600)
- Sequence (P10600 301-412): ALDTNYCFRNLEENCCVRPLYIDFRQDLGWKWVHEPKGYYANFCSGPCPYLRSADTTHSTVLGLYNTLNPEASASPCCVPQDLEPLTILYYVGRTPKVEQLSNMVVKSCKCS
- test method notes: cell-based or functional assay
Some binders, each annotated with its measured TGFβ inhibition by HEK-Blue cells (IC50: nM), TGFb3; Blocking: Incomplete.
endpoint label: TGFβ inhibition by HEK-Blue cells (IC50: nM), TGFb3; Blocking: Incomplete

| binder | experimental result |
| --- | --- |
| humanized 4A11 variant 1 (antibody, V domains shown, as the VH of m7 (h4A11.v2): rbt4A11 CDRs and rabbit Vernier residues grafted on human germline IGHV3-48*01; rbt4A11 CDRs and rabbit Vernier residues (VL positions 2, 4, 36, 43, 58) grafted on human germline IGKV4-1*01; human IgG1; also called h4A11.v1; v1; source: Expi293F, transient, purified (Protein A, SEC)) VH: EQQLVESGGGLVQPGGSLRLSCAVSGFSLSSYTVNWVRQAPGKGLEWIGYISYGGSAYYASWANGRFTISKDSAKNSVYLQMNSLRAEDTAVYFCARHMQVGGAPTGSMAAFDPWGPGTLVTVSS VL: DAVLTQSPDSLAVSLGERATINCQSSQSVYNNNYLSWFQQKPGQPPKLLIYGASTLTSGVPDRFSGSGSGTDFTLTISSLQAEDVAVYYCAGGYSGSSDKYAFGGGTKVEIK | > 667 nM |
| humanized 4A11 variant 5 (antibody, V domains shown, as the VH of m7 (h4A11.v2): rbt4A11 CDRs and rabbit Vernier residues grafted on human germline IGHV3-48*01; as the VL of m12 (h4A11.v7): rbt4A11 CDRs and rabbit Vernier residues grafted on human germline IGKV3-20*01; human IgG1; also called h4A11.v5; v5; source: Expi293F, transient, purified (Protein A, SEC)) VH: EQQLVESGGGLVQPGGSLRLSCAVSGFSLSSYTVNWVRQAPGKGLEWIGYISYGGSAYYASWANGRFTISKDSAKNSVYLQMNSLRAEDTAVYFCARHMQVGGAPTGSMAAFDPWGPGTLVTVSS VL: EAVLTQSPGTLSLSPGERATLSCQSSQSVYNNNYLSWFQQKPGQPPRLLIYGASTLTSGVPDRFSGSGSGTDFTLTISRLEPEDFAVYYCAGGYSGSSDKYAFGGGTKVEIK | > 667 nM |
| humanized 4A11 variant 2 (antibody, V domains shown, rbt4A11 CDRs (Kabat and Chothia) and rabbit Vernier residues (VH positions 2, 24, 37, 48, 49, 67, 71, 78, 91, 105) grafted on human germline IGHV3-48*01; has R19, Y79, Q81 (Kabat numbering); rbt4A11 CDRs and rabbit Vernier residues (VL positions 2, 4, 36, 43, 58) grafted on human germline IGKV1D-39*01; human IgG1; also called h4A11.v2; v2; source: Expi293F, transient, purified (Protein A, SEC)) VH: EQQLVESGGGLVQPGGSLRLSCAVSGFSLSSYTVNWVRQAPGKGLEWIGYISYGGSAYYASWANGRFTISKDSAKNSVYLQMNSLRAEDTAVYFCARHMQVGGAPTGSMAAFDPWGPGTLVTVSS VL: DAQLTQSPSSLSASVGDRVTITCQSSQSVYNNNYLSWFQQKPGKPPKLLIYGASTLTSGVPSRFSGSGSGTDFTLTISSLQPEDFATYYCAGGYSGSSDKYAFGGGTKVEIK | > 667 nM |
